Biological target: T1, 6His-Fc-FGFR4 (human, UniProt P22455 144-369)
T1 construct: not shown: 6His tag and Fc as named in '6His-Fc-FGFR'
T1 sequence: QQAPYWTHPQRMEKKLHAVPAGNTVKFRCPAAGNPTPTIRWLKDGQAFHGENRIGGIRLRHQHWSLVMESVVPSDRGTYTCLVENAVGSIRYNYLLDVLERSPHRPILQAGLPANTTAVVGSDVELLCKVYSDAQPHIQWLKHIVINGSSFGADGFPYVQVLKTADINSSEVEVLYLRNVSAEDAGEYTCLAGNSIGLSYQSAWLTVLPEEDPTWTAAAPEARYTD
Assay: competition ELISA, blocks 6His-Fc-FGFR4 binding to coated FGF2
Protocol: ELISA plates were coated with 50 ug/ml Heparin Sulfate (HSPG) (Sigma Aldrich) and incubated overnight at room temperature. Plates were then washed extensively with PBS containing 0.05% v/v Tween20 (PBST). […] Plates were washed extensively as before with PBST and the remaining fraction of bound 6His-Fc-FGFR was detected using a polyclonal-anti-His-6-HRP conjugated antibody (Abcam) for one hour at room temperature. […]

binder	IC50, nM
Ab21 (antibody, human IgG2, kappa, V domains shown, format in the assays not spelled out) VH: EVQLLESGGGVVQPGRSLRLSCAASGFTFSSYAMHWVRQAPGKGLEWVAVISYDGSNKYYADSVKGRFTISRDNSKNTLSLQMNSLRVEDTAIYYCVRGAGLGWPYGPDGFDIWGQGTMVTVSS VL: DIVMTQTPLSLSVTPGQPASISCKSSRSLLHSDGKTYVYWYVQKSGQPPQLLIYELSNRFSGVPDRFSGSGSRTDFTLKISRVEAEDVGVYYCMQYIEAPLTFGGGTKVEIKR	9.96
